- System: MCF10A
- Experiment: 5+ nucleoli phenotype percent effect (relative to siNT 0% and siKIF11 100%); higher = more cells with five or more nucleoli
- Experimental conditions: 20 nM; 72 h

{"Residues": "CUGGGGUUCUGAGACAGACAGU [hsa-miR-3170]", "Units text": "%", "5+ nucleoli phenotype percent effect": -46.2}
{"Residues": "AAGCCCUUACCCCAAAAAGUAU [hsa-miR-129-1-3p]", "Units text": "%", "5+ nucleoli phenotype percent effect": -37.4}
{"Residues": "CACAGCAAGUGUAGACAGGCA [hsa-miR-3120-3p]", "Units text": "%", "5+ nucleoli phenotype percent effect": 22.9}
{"Residues": "UAGGAGCUCAACAGAUGCCUGUU [hsa-miR-3139]", "Units text": "%", "5+ nucleoli phenotype percent effect": -23.5}
{"Residues": "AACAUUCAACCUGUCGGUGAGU [hsa-miR-181c-5p]", "Units text": "%", "5+ nucleoli phenotype percent effect": 3.6}
{"Residues": "UCUGAGUUCCUGGAGCCUGGUCU [hsa-miR-4682]", "Units text": "%", "5+ nucleoli phenotype percent effect": 18.8}
{"Residues": "CUGGGGGGAGGAGACCCUGCU [hsa-miR-7109-5p]", "Units text": "%", "5+ nucleoli phenotype percent effect": -2.63}
{"Residues": "AAUGUUGGAAUCCUCGCUAGAG [hsa-miR-4781-3p]", "Units text": "%", "5+ nucleoli phenotype percent effect": 12.4}
{"Residues": "AAAUGGGUGGUCUGAGGCAA [hsa-miR-4506]", "Units text": "%", "5+ nucleoli phenotype percent effect": -7.36}
{"Residues": "CUCCUCCCCUGCCUGGCCCAG [hsa-miR-6749-3p]", "Units text": "%", "5+ nucleoli phenotype percent effect": 0.0227}
{"Residues": "CGGGCCGGAGGUCAAGGGCGU [hsa-miR-6781-5p]", "Units text": "%", "5+ nucleoli phenotype percent effect": 54.4}
{"Residues": "CUUGGGGCAUGGAGUCCCA [hsa-miR-4260]", "Units text": "%", "5+ nucleoli phenotype percent effect": 9.54}

====

- System: MCF10A
- Experiment: percent viability (nuclei count relative to siNT); higher = more viable cells
- Experimental conditions: 20 nM; 72 h

{"Residues": "AUACCCAUAGCUUAGCUCCCA [hsa-miR-5591-3p]", "percent viability / %": 16.2}
{"Residues": "AUCAAGGAUCUUAAACUUUGCC [hsa-miR-561-5p]", "percent viability / %": 38.8}
{"Residues": "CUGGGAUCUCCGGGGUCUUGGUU [hsa-miR-769-3p]", "percent viability / %": 40.7}
{"Residues": "CAGGGCCCUGGCUUUAGCAGA [hsa-miR-7160-3p]", "percent viability / %": 41.3}
{"Residues": "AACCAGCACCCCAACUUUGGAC [hsa-miR-634]", "percent viability / %": 4.33}
{"Residues": "UGAGACCAGGACUGGAUGCACC [hsa-miR-4786-5p]", "percent viability / %": 42.2}
{"Residues": "GUAGGUGACAGUCAGGGGCGG [hsa-miR-6800-5p]", "percent viability / %": 33.9}
{"Residues": "AGGUUGGGAUCGGUUGCAAUGCU [hsa-miR-92a-1-5p]", "percent viability / %": 17.4}
{"Residues": "UACAUGGAUGGAAACCUUCAAGC [hsa-miR-4802-3p]", "percent viability / %": 70.6}
{"Residues": "AGACACAUUUGGAGAGGGACCC [hsa-miR-642b-3p]", "percent viability / %": 71.1}
{"Residues": "GCUGGUUUCAUAUGGUGGUUUAGA [hsa-miR-29b-1-5p]", "percent viability / %": 100}
